# Tested on: Clostridium sporogenes DSM 1664
# methodSummary: fold change of Tryptamine concentration vs plate DMSO controls (fold change (ratio)); higher = more amine produced, active = hit call of the paper (significant change in both replicates, either direction)
# statedConditions: incubation time: 27 h, anaerobic, 37 °C
Where a name gives a salt, the structure may show the parent alone.
Recorded fold change of Tryptamine concentration for the following molecules
observedProperty: fold change of Tryptamine concentration

# molecule, assayValue
rows = [
    ("N=C(N)NS(=O)(=O)c1ccc(N)cc1 [Sulfaguanidine] (20 µM)", 1.27),
    ("COc1ccc(-c2cc(=S)ss2)cc1 [Anethole-trithione] (20 µM)", 1.18),
    ("c1ccc2cc3ccccc3cc2c1 [Anthracene] (20 µM)", 1.03),
    ("C=C1CC[C@H](O)C/C1=C/C=C1\\CCC[C@]2(C)[C@@H]([C@H](C)CCCC(C)C)CC[C@@H]12 [Cholecalciferol] (20 µM)", 0.975),
    ("N=C(N)N1CCc2ccccc2C1 [Debrisoquin sulfate] (20 µM)", 1.03),
    ("CCCCCCNC(=O)n1cc(F)c(=O)[nH]c1=O [Carmofur] (20 µM)", 0.872),
    ("Cc1cc(-n2c(=O)[nH]c(=O)n(C)c2=O)ccc1Oc1ccc(SC(F)(F)F)cc1 [Toltrazuril] (20 µM)", 0.941),
    ("NC(=O)OCC(O)COc1ccc(Cl)cc1 (configuration not stated) [Chlorphensin carbamate] (20 µM)", 0.996),
    ("CCn1cc(C(=O)O)c(=O)c2cnc(N3CCCC3)nc21 [Piromidic acid] (20 µM)", 1.02),
    ("CC(Cc1cccc(C(F)(F)F)c1)NCCOC(=O)c1ccccc1 (configuration not stated) [Benfluorex] (20 µM)", 0.988),
    ("CC(=O)S[C@@H]1CC2=CC(=O)CC[C@]2(C)[C@H]2CC[C@@]3(C)[C@@H](CC[C@@]34CCC(=O)O4)[C@H]12 [Spironolactone] (20 µM)", 1.03),
    ("COc1ccc(-c2ccc3cc(C(=O)O)ccc3c2)cc1C12CC3CC(CC(C3)C1)C2 [Adapalene] (20 µM)", 0.96),
    ("COc1cnc(NS(=O)(=O)c2ccc(N)cc2)nc1 [Sulfameter] (20 µM)", 0.945),
    ("NS(=O)(=O)c1cc2c(cc1Cl)NCNS2(=O)=O [Hydrochlorothiazide] (20 µM)", 0.949),
    ("CC(C)(Oc1ccc(C2CC2(Cl)Cl)cc1)C(=O)O (configuration not stated) [Ciprofibrate] (20 µM)", 1.04),
    ("CC(CN(C)C)CN1c2ccccc2Sc2ccccc21 (configuration not stated) [Trimeprazine tartrate] (20 µM)", 1.08),
    ("CN(CCCN1c2ccccc2CCc2ccccc21)CC(=O)c1ccc(Cl)cc1 [Lofepramine] (20 µM)", 1.04),
]
